- Tested on: EKVX
- test name: NCI tumour cell line growth inhibition, 48 h
The source made the active and inactive calls. No stated cut-off is given here; in the data, active = GI50 up to about 1.1 µM and inactive = higher.
Possible outcomes: Yes = active, No = inactive

>>> answer_label("Cc1c(-c2ccc(O)c(O)c2)oc(=O)c2c(O)cccc12")
"No"
>>> answer_label("C[N+](C)(C)C1(C(=O)[O-])CC1")
"No"
>>> answer_label("CCOC(=O)/C=C(/N=P(c1ccccc1)(c1ccccc1)c1ccccc1)C(F)(F)F")
"No"
>>> answer_label("CCC(=O)n1c(=O)n(-c2ccc([N+](=O)[O-])cc2)c(=O)n1C(=O)CC")
"No"
>>> answer_label("CCN(CC)CCCNc1c2cc(OC)ccc2nc2cccc([N+](=O)[O-])c12")
"Yes"
>>> answer_label("CCc1nc(N)nc(N)c1-c1ccc(Cc2ccccc2)c([N+](=O)[O-])c1")
"No"
>>> answer_label("Nc1nc(NNc2ccccc2F)cc(=O)[nH]1")
"No"
>>> answer_label("O=C1c2ccccc2C(=O)N1CCc1ncc[nH]1")
"No"
>>> answer_label("c1ccc2cc(-c3cc4ccccc4s3)ccc2c1")
"No"
>>> answer_label("CSc1cnc2ccccc2c1Sc1c[nH]c2ccccc2c1=O")
"No"
>>> answer_label("C=CCN1C[C@H](C)N([C@H](c2ccc(C(=O)N(CC)CCO)cc2)c2cccc(OC)c2)C[C@H]1C")
"No"

Just for reference, ChEMBL document CHEMBL1201862 is where these values come from.
